Where do the numbers come from? From ChEMBL document CHEMBL1143484.

Target Or Test System: Melanocortin receptor 4 (Homo sapiens, UniProt P32245)
Sequence (P32245 whole entry): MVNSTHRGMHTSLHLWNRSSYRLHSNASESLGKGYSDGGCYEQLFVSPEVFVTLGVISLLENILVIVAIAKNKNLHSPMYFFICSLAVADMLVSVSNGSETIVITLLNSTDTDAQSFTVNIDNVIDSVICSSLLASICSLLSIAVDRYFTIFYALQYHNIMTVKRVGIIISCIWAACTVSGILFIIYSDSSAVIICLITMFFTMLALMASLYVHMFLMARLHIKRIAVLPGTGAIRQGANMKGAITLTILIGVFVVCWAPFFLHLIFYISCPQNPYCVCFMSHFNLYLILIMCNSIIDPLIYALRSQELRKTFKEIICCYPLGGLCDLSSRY
Readout Kind: IC50 (nM)
Numeric only. Scale: nM

For the record `CCCCC(=O)N[C@]1(C(=O)N[C@H](Cc2ccccc2)C(=O)N[C@@H](CCCNC(=N)N)C(=O)N[C@@H](Cc2c[nH]c3ccccc23)C(=O)NCC(N)=O)CC[C@H](c2ccccc2)CC1` , what value of IC50 is listed for Melanocortin receptor 4 (Homo sapiens, UniProt P32245)?
13

====

Target Or Test System: Melanocyte-stimulating hormone receptor (Homo sapiens, UniProt Q01726)
Sequence (Q01726 whole entry): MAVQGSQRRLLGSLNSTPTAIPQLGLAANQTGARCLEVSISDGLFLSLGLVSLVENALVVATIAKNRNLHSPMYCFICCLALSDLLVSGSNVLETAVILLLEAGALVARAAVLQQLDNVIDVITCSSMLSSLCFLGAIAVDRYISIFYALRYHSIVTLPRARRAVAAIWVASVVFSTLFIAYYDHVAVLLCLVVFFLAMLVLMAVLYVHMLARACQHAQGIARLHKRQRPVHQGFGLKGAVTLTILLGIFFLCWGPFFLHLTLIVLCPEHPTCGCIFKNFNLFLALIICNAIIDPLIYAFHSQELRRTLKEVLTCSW
Procedure Details: Effective concentration required for cAMP accumulation mediated by human Melanocortin 1 receptor in HEK293 cells
Below: a set of entries, each annotated with reported EC50.
Please reply with the bare figure in nM and do not write the unit itself.

Smiles Str | Output Unit | Data Value
CCCCC(=O)N[C@]1(C(=O)N[C@H](Cc2ccccc2)C(=O)N[C@@H](CCCN=C(N)N)C(=O)N[C@@H](Cc2c[nH]c3ccccc23)C(=O)NCC(N)=O)CC[C@H](c2cc(CCC)cc(CCC)c2)CC1 | nM | 210
CCCCC(=O)N[C@]1(C(=O)N[C@H](Cc2ccccc2)C(=O)N[C@@H](CCCNC(=N)N)C(=O)N[C@@H](Cc2c[nH]c3ccccc23)C(=O)NCC(N)=O)CC[C@H](c2ccc(O)cc2)CC1 | nM | 1300

From here, focus on the item given below.
Request - read-out EC50 | tested on Melanocyte-stimulating hormone receptor (Homo sapiens, UniProt Q01726) | compound `CCCCC(=O)N[C@]1(C(=O)N[C@H](Cc2ccccc2)C(=O)N[C@@H](CCCNC(=N)N)C(=O)N[C@@H](Cc2c[nH]c3ccccc23)C(N)=O)CC[C@H](c2ccccc2)CC1`
1300
